Listed next: entries and their corresponding activity at 6 µM.
- assay.target: recombinant AplaCSP4 (Agrilus planipennis chemosensory protein 4) (Agrilus planipennis, UniProt A0A1W4XLL0)
- Sequence (A0A1W4XLL0 entry or part of it): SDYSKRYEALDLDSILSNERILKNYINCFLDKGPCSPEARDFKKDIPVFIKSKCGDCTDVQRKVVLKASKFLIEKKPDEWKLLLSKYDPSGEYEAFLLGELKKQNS
- experiment.notes: biochemical
- Type: binding
- condition.description: pH 7.4, read-out: Competitive binding capability(%), ligand concentration 6 μM; three replicate columns; 100 at 0 μM
The figure you give is taken to be in %; do not add the unit.

{"input.smiles": "CCCCCCCCCC", "activity at 6 µM [%]": 42.4}
{"input.smiles": "CC(=O)/C=C/C1=C(C)CCCC1(C)C", "activity at 6 µM [%]": 51.9}
{"input.smiles": "CCCCCCCCCCCC", "activity at 6 µM [%]": 29.7}

What the record says about CCCCCCCC : activity at 6 µM is 56.4

* * *

- assay.target: recombinant AplaCSP4 (Agrilus planipennis chemosensory protein 4) (Agrilus planipennis)
- experiment.notes: biochemical
- Assay type: binding
- condition.description: pH 7.4, read-out: Competitive binding capability(%), ligand concentration 2 μM; three replicate columns; 100 at 0 μM
reported.endpoint: activity at 2 µM (%)
Give just the numeric value; % need not be written.

{"input.smiles": "CCCCCCCCCC", "assay.target": "recombinant AplaCSP4 (Agrilus planipennis chemosensory protein 4) (Agrilus planipennis)", "numeric.result": 57.1}
{"input.smiles": "CC(=O)/C=C/C1=C(C)CCCC1(C)C", "assay.target": "recombinant AplaCSP4 (Agrilus planipennis chemosensory protein 4) (Agrilus planipennis)", "numeric.result": 75.8}
{"input.smiles": "CCCCCCCCCCCC", "assay.target": "recombinant AplaCSP4 (Agrilus planipennis chemosensory protein 4) (Agrilus planipennis)", "numeric.result": 63.1}

Please look at the following molecule next.
Lab note: CCCCCCCC gave activity at 2 µM of 86

* * *

Listing of entries alongside the reported activity at 8 µM.
- assay.target: recombinant AplaCSP4 (Agrilus planipennis chemosensory protein 4) (Agrilus planipennis, UniProt A0A1W4XLL0)
- experiment.notes: biochemical
- Format: binding
- condition.description: pH 7.4, ligand concentration 8 μM; three replicate columns; 100 at 0 μM; read-out: Competitive binding capability(%)
Could you give me the number in %? Just the number is fine.

Known results for molecules:
{"molecule": "CC/C=C\\CCOC(=O)c1ccccc1 [cis-3-Hexenyl benzoate]", "activity at 8 µM (%)": 44.5}
{"molecule": "C=CC(C)(O)CCC=C(C)CCC=C(C)C (mixture of isomers)", "activity at 8 µM (%)": 21.1}
{"molecule": "C=CC(=C)CCC=C(C)C", "activity at 8 µM (%)": 66.9}

Consider the additional molecule presented here.
Reported activity at 8 µM ( CCCCCCOC(=O)CCC [Hexyl butyrate] ) = 72.2

* * *

- assay.target: recombinant AplaCSP4 (Agrilus planipennis chemosensory protein 4) (Agrilus planipennis)
- experiment.notes: biochemical
- Format: binding
- condition.description: pH 7.4, ligand concentration 12 μM; three replicate columns; 100 at 0 μM; read-out: Competitive binding capability(%)
reported.endpoint: activity at 12 µM (%)
Reply with just the number (in %).

Sample records with activity at 12 µM:
{"compound": "C=CC(=C)CCC=C(C)C [Myrcene]", "assay.target": "recombinant AplaCSP4 (Agrilus planipennis chemosensory protein 4) (Agrilus planipennis)", "value.units": "%", "activity at 12 µM": 54.9}
{"compound": "CC/C=C\\CCOC(=O)c1ccccc1 [cis-3-Hexenyl benzoate]", "assay.target": "recombinant AplaCSP4 (Agrilus planipennis chemosensory protein 4) (Agrilus planipennis)", "value.units": "%", "activity at 12 µM": 35}
{"compound": "CCCCCCOC(=O)CCC [Hexyl butyrate]", "assay.target": "recombinant AplaCSP4 (Agrilus planipennis chemosensory protein 4) (Agrilus planipennis)", "value.units": "%", "activity at 12 µM": 61.7}

Lab note: measured activity at 12 µM of C=CC(C)(O)CCC=C(C)CCC=C(C)C (mixture of isomers) [Nerolidol] was 16.1

* * *

Documented activity at 8 µM across a set of compounds
- assay.target: recombinant AplaCSP4 (Agrilus planipennis chemosensory protein 4) (Agrilus planipennis, UniProt A0A1W4XLL0)
- experiment.notes: biochemical
- Assay type: binding
- condition.description: pH 7.4, read-out: Competitive binding capability(%), ligand concentration 8 μM; three replicate columns; 100 at 0 μM
Give just the numeric value; % need not be written.

{"input.smiles": "CC(=O)/C=C/C1=C(C)CCCC1(C)C", "reported.endpoint": "activity at 8 µM", "value.units": "%", "numeric.result": 45}
{"input.smiles": "CCCCCCCCCCCC", "reported.endpoint": "activity at 8 µM", "value.units": "%", "numeric.result": 27.4}
{"input.smiles": "CCCCCCCCCC", "reported.endpoint": "activity at 8 µM", "value.units": "%", "numeric.result": 40.4}

GET /value?item= CCCCCCCC &field=activity at 8 µM returns 45

* * *

- assay.target: recombinant AplaCSP4 (Agrilus planipennis chemosensory protein 4) (Agrilus planipennis)
- experiment.notes: Binding of fluorescent probe 1-NPN to AplaCSP4 (titration)
- condition.description: 2 µM protein in 50 mM Tris–HCl pH 7.4 titrated with 1-NPN 2-16 µM; read-out: binding affinity constant (KD) between 1-NPN and AplaCSP4
reported.endpoint: pKd
# log scale: pKd equals minus log10 of the concentration in mol/L

Per the record, c1ccc(Nc2cccc3ccccc23)cc1 has pKd of 5.03

* * *

// values below are reported activity at 4 µM
- assay.target: recombinant AplaCSP4 (Agrilus planipennis chemosensory protein 4) (Agrilus planipennis, UniProt A0A1W4XLL0)
- experiment.notes: biochemical
- Type: binding
- condition.description: pH 7.4, ligand concentration 4 μM; three replicate columns; 100 at 0 μM; read-out: Competitive binding capability(%)
The answer is to be given in %; state only the numeric part.

{"compound": "CCCCCCOC(=O)CCC [Hexyl butyrate]", "activity at 4 µM (%)": 85.4}

Summary for this compound, C=CC(=C)CCC=C(C)C : activity at 4 µM is 87

Short answer for C=CC(C)(O)CCC=C(C)CCC=C(C)C (mixture of isomers) : activity at 4 µM was 35.3

// CC/C=C\CCOC(=O)c1ccccc1 [cis-3-Hexenyl benzoate] : activity at 4 µM value = 61.8

* * *

- assay.target: recombinant AplaCSP4 (Agrilus planipennis chemosensory protein 4) (Agrilus planipennis, UniProt A0A1W4XLL0)
- experiment.notes: biochemical
- Format: binding
pIC50: −log10 of the molar value.
The entries below come with measured pIC50 values attached.

In the examples that follow, each entry is paired with its recorded pIC50.
{"compound": "COC(=O)c1ccccc1 [Methyl benzoate]", "pIC50": "< 4.80"}
{"compound": "CCCCCCO", "pIC50": "< 4.80"}
{"compound": "CC(=O)O[C@@H]1C[C@H]2CC[C@]1(C)C2(C)C (racemic) [Isobornyl acetate]", "pIC50": "< 4.80"}
{"compound": "C=CC(O)CCCCC (stereo not drawn)", "pIC50": "< 4.80"}
{"compound": "O=Cc1ccccc1", "pIC50": "< 4.80"}

Form field pIC50, entry CCCCC(C)=O : < 4.80

Noted for C=C(C)[C@@H]1CC=C(C)C(=O)C1 [(R)-(-)-Carvone] : its pIC50 reads < 4.80

Please fill in: pIC50 reported for C=CC(C)(O)CCC=C(C)C (stereo not drawn) = < 4.80

The reported value for CCCCCC=O in terms of pIC50 is < 4.80

response.value for CC(C)=CCCC(C)=CC=O (mixture of isomers) (field: pIC50) = < 4.80

Sure, the documented pIC50 for C=CCc1ccc(O)c(OC)c1 is < 4.80

Looking up CCc1ccc(C(C)=O)cc1 , I found its pIC50 recorded as < 4.80

Query N#CCc1ccccc1 yields pIC50 of < 4.80

Form: compound = CC/C=C\CCO [cis-3-Hexen-1-ol] ; pIC50 = < 4.80

Note to self: pIC50 recorded for COC(=O)c1ccccc1O [Methyl salicylate] was < 4.80

The measured pIC50 associated with C=C1CC/C=C(\C)CC[C@@H]2[C@@H]1CC2(C)C reads < 4.80

The recorded pIC50 for entry CC12CCC(CC1)C(C)(C)O2 equals < 4.80

pIC50 recorded for this compound, CCC/C=C/C=O [trans-2-Hexenal] , is < 4.80

* * *

Measured activity at 4 µM by item
- assay.target: recombinant AplaCSP4 (Agrilus planipennis chemosensory protein 4) (Agrilus planipennis)
- experiment.notes: biochemical
- Type: binding
- condition.description: pH 7.4, read-out: Competitive binding capability(%), ligand concentration 4 μM; three replicate columns; 100 at 0 μM
Note: unit % is implicit; provide only the numeric part.

Would you please look over these solved cases?
{"molecule": "CCCCCCCCCC [Decane]", "numeric.result": 45.8}
{"molecule": "CCCCCCCCCCCC [Dodecane]", "numeric.result": 37.5}
{"molecule": "CC(=O)/C=C/C1=C(C)CCCC1(C)C [β-Ionone]", "numeric.result": 61.2}

Record summary for CCCCCCCC [n-Octane] : reported activity at 4 µM = 67.9
